ASSAY SYSTEM: NADPH oxidase 5 (Homo sapiens)
ASSAY EXPLANATION: NOX5-dependent H2O2 signal modulators, primary screen, NOX inhibitor project, cell-based, HEK293-NOX5, Amplex Red fluorescence (AID 1161)
SETTINGS: HEK293-NOX5, ionomycin, 45 min, higher = more signal
For each record, write down the corresponding z-score.
Give a plain numeric answer without units written out.

Provide only the value of recorded z-score for COC(=O)[C@]1(Cc2ccccc2N=[N+]=[N-])N=C(c2ccc(OCCCO)cc2)O[C@@H]1c1ccccc1CN=[N+]=[N-] -2.43

Provide only the value of recorded z-score for COC(=O)[C@@]1(Cc2ccc(F)cc2)[C@H]2c3cc(C(=O)N(C)C)n(CCF)c3C[C@H]2CN1C(=O)c1ccccc1 -3.46

Provide only the value of recorded z-score for [N-]=[N+]=Nc1ccccc1C[C@]1(C(N)=O)COC(c2ccc(OCCCO)cc2)=N1 -2.48

Provide only the value of recorded z-score for COc1ccc([Si](C)(C)[C@@H]2[C@@H](CC(=O)N3CCC[C@H]3CO)O[C@]3(C(=O)N(Cc4cccc(N5C(=O)c6cccc7cccc5c67)c4)c4ccccc43)[C@H]2C)cc1 2.84

Provide only the value of recorded z-score for CN(C)C(=O)[C@]1(CCS(=O)(=O)c2ccccc2)N=C(c2ccc(OCCCO)cc2)O[C@@H]1c1ccccc1CN=[N+]=[N-] -0.658

Provide only the value of recorded z-score for CCOC(=O)C1=CC[C@@H](c2ccccc2)N(S(=O)(=O)c2ccc(C)cc2)[C@@H]1C#N -0.14

Provide only the value of recorded z-score for O=C1NC(=O)C2C1C=CC(C(O)C(O)CO)N2Nc1ccccn1 (stereo not given) -0.339

Provide only the value of recorded z-score for COCCOC(=O)N1C(=O)[C@@]2(c3cc(C#CCNC(N)=O)ccc31)[C@H](c1ccc(O)cc1)N1[C@H](c3ccccc3)[C@H](c3ccccc3)OC(=O)[C@H]1[C@@H]2C(=O)N1CCc2cc(OC)c(OC)cc2C1 0.891

Provide only the value of recorded z-score for CCCN1C(=O)[C@@]2(c3ccc([N+](=O)[O-])cc3)CC(=O)N(C3CCCCC3)[C@@H]2c2ccc(CO)cc21 -0.19

Provide only the value of recorded z-score for CCOC(=O)C=C1C[C@@H](c2cccc([N+](=O)[O-])c2)O[C@@H](c2cccc([N+](=O)[O-])c2)O1 1.28

Provide only the value of recorded z-score for CC(C)C(=C=CC[C@H](O)c1cccc(OCCO)c1)C[C@H](O)c1ccccn1 -1.13

Provide only the value of recorded z-score for COC(=O)[C@@]1(Cc2ccc(F)cc2)[C@H]2c3cc(C(=O)N(C)C)n(Cc4ccc(C(F)(F)F)nc4)c3C[C@H]2CN1C(=O)c1ccccc1 0.568

Provide only the value of recorded z-score for CC1C2C(CCCO)=CC(C3C(=O)N(C(N)=O)C(=O)C23)N1Cc1cccc(OC(F)(F)F)c1 (stereo not given) 0.107

Provide only the value of recorded z-score for CCCCN1CC=CC23O[C@@H]4C=CCCOC(=O)C4[C@H]2C(=O)N(CCO)[C@@H]3C1=O (stereo not given in full) 0.432

Provide only the value of recorded z-score for COc1ccc([Si](C)(C)[C@H]2[C@H](CC(=O)N(CCO)Cc3ccccc3)O[C@@]3(C(=O)N(Cc4cccc(N5CCCCC5=O)c4)c4ccccc43)[C@@H]2C)cc1 2.24

====

ASSAY EXPLANATION: S. cerevisiae RM11-1a growth modifiers, primary screen, strain RM11-1a, OD600, basal, 24 h (AID 1177);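 also: cultures grown under basal conditions with no added stressor; test concentration not given here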
SETTINGS: OD600, 24 h, higher = more signal, called active from +8 up or from −8 down
ENDPOINT LABEL: z-score
Give a plain numeric answer without units written out.

Provide only the value of recorded z-score for C=CC[C@H](O)c1ccc(O)c(F)c1 -0.498

Provide only the value of recorded z-score for CCCCC(=C=CC[C@@H](O)c1ccccc1OCCO)C[C@@H](O)c1ccccn1 -0.506

Provide only the value of recorded z-score for Cc1ccc(S[C@]2(C(=O)NCc3ccccc3)CC(=O)N(Cc3ccccc3C(F)(F)F)[C@@H]2c2ccc(CO)cc2I)cc1 -1.54

Provide only the value of recorded z-score for C=CCOC(=O)[C@H]1[C@@H]2C(=O)O[C@@H](c3ccccc3)[C@@H](c3ccccc3)N2[C@@H](c2ccc(OCCOC(=O)[C@@H]3C[C@@H]4C(=O)N[C@@H](Cc5ccccc5)C(=O)N4[C@@H]3c3ccc(O)cc3)cc2)[C@]12C(=O)Nc1ccc(I)cc12 2.92

Provide only the value of recorded z-score for COc1ccc(CCNC(=O)[C@@]2(C)c3ccccc3C(=O)N(Cc3ccc(OC(F)(F)F)cc3)[C@H]2c2ccc(CO)cc2)cc1 0.362

Provide only the value of recorded z-score for CCOC(=O)C[C@H]1[C@H](OC(=O)Cc2ccc3c(c2)OCO3)[C@@H](NC(=O)CC(C)C)c2cc(OCCCO)ccc2N1C(=O)c1ccc2ccccc2n1 -0.0738

Provide only the value of recorded z-score for Cc1cccc([C@H]2C[C@H]3C(Br)=C[C@@]2(CO)C(=O)[C@]32CO2)c1 -0.169

====

ASSAY EXPLANATION: S. cerevisiae RM11-1a growth modifiers, primary screen, strain RM11-1a, OD600, basal, 24 h (AID 1177);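 also: cultures grown under basal conditions with no added stressor; test concentration not given here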
SETTINGS: OD600, 24 h, higher = more signal, called active from +8 up or from −8 down
Decide by z-score: equal to or exceeding 0.2 means true (1), less means false (0).

Could you verify whether the entry C=CC[C@H](O)c1ccc(O)c2ccccc12 shows z-score of no less than 0.2? true (1)

Could you verify whether the entry CCCCCCc1nc(-c2ccc(OC)nc2)c(C)c2c1[Si](C(C)C)(C(C)C)OC2 shows z-score of no less than 0.2? false (0)

Could you verify whether the entry CCCCCN1CC=CC23O[C@@H]4/C=C\CCCOC(=O)C4[C@H]2C(=O)N(CCCCCO)[C@@H]3C1=O (stereo partly drawn) shows z-score of no less than 0.2? false (0)

Could you verify whether the entry O=C1c2ccccc2[C@](Cc2ccccc2I)(C(=O)NCCN2CCOCC2)[C@H](c2ccc(CO)cc2)N1Cc1ccccc1C(F)(F)F shows z-score of no less than 0.2? false (0)

Could you verify whether the entry COc1ccc(C#Cc2ccc3c(c2)[C@]2(C(=O)N3)[C@H](c3ccccc3OCCO)N3[C@H](c4ccccc4)[C@H](c4ccccc4)OC(=O)[C@H]3[C@@H]2C(=O)NC[C@H](O)c2ccccc2)cc1 shows z-score of no less than 0.2? true (1)

Could you verify whether the entry CC[C@@H](O[Si](C#C[Si](C(C)C)(C(C)C)C(C)C)(C(C)C)C(C)C)c1cn(Cc2cccc(Cl)c2)nn1 shows z-score of no less than 0.2? true (1)

Could you verify whether the entry CCCCN1CC=CC23O[C@@H]4C=CCCOC(=O)C4[C@H]2C(=O)N(CCO)[C@@H]3C1=O (stereo partly drawn) shows z-score of no less than 0.2? false (0)

====

ASSAY EXPLANATION: small-molecule microarray binders of probe aEGFR, primary screen, biochemical, biotinylated probe, 635/667 nm fluorescence (AID 1097);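 also: probe is a biotinylated anti-EGFR antibody binding compounds printed on slides; score combines fluorescence near 667 nm and signal to noise of each spot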
SETTINGS: higher = more signal
For each record, write down the corresponding composite z-score.

Provide only the value of recorded composite z-score for CC(C)c1ccc(NN2C(C(O)C(C)c3ccccc3)C=CC3C(=O)N(c4ccccc4)C(=O)C32)cc1 (stereo not given) 0.298

Provide only the value of recorded composite z-score for CC(C)(C)OC(=O)CC[C@@]1(C(=O)N2CCOCC2)N=C(c2ccc(OCCCO)cc2)O[C@@H]1c1ccccc1CN=[N+]=[N-] 0.103

Provide only the value of recorded composite z-score for COC(=O)[C@@]1(Cc2ccc(F)cc2)[C@H]2c3cc(C(=O)N4CCCC4)n(CCSCCO)c3C[C@H]2CN1C(=O)c1ccccc1 0.0726

Provide only the value of recorded composite z-score for COC(=O)[C@@]1(Cc2ccccc2)[C@H]2c3cc(C(=O)N(C)C)n(Cc4nc5ccccc5[nH]4)c3C[C@H]2CN1C(=O)c1ccccc1 0.135

Provide only the value of recorded composite z-score for COC(=O)Cn1c(C(=O)N(C)C)cc2c1C[C@H]1CN(C(=O)c3ccccc3)[C@@](Cc3ccccc3)(C(=O)OC)[C@@H]21 0.25

Provide only the value of recorded composite z-score for CO[C@H]1O[C@H](CO)[C@@H](OC(=O)Nc2cccc(F)c2)[C@H](OC(=O)Nc2ccc3c(c2)OCO3)[C@@H]1OC(=O)Nc1ccc2c(c1)OCO2 -0.039

Provide only the value of recorded composite z-score for O=C1NC(=O)C2C1C=CC(C(O)C1CCCCC1)N2Nc1ccccn1 (stereo not given) -0.104

Provide only the value of recorded composite z-score for C=C(C)C1CN([C@H](CO)c2ccccc2)C(=O)/C1=C\c1ccccc1 (stereo not given in full) -0.167

Provide only the value of recorded composite z-score for COCCOC(=O)N1C(=O)[C@@]2(c3cc(C#CCCO)ccc31)[C@H](C(=O)N1CCN(c3ncccn3)CC1)[C@H]1C(=O)O[C@H](c3ccccc3)[C@H](c3ccccc3)N1[C@@H]2c1ccc(OCCO)cc1 0.0193

Provide only the value of recorded composite z-score for COCCOC(=O)N1C(=O)[C@@]2(c3cc(C#CC4=CCCCC4)ccc31)[C@H](C(=O)N1CCCCCCC1)[C@H]1C(=O)O[C@H](c3ccccc3)[C@H](c3ccccc3)N1[C@@H]2c1ccccc1OCCO 0.417

Provide only the value of recorded composite z-score for CC[C@H]1C2=C3C(CC[C@H]4C(OCc5ccc(F)cc5C(F)(F)F)OC[C@](C)([C@@H]34)N(C(=O)OC(C)(C)C)C2)C(COC(C)=O)C1COC(C)=O (stereo not given in full) 0.0507

Provide only the value of recorded composite z-score for CC1CC/C=C\[C@H]2OC34C=CCN(CCN5CCOCC5)C(=O)[C@H]3N(C(CO)C(C)C)C(=O)[C@@H]4C2C(=O)O1 (stereo not given in full) -0.0332

Provide only the value of recorded composite z-score for C=CC[C@H](O)c1ccc(O)c(F)c1 -0.115

Provide only the value of recorded composite z-score for [N-]=[N+]=NCc1ccccc1[C@H]1OC(c2ccc(OCCCO)cc2)=N[C@@]1(Cc1ccccc1N=[N+]=[N-])C(=O)N1CCOCC1 -0.0031

Provide only the value of recorded composite z-score for CCN1C(=O)C2CC(=O)C3C(CN(S(=O)(=O)c4ccc(C)cc4)C3c3ccc(C)cc3)C2C1=O (stereo not given) -0.0089
